target: human alpha 7-wt nAChR (Homo sapiens, UniProt P36544); construct: expressed in transfected cells; assay: Ca2+ flux imaging (FDSS) (Protocol B); assay type: cell-based; details: efficacy of 100 μM choline defined as 100% in the absence of a PAM; read-out: a7-PAM-G_[33]_Eff_Curve_FI % Efficacy
Sequence (P36544 23-502): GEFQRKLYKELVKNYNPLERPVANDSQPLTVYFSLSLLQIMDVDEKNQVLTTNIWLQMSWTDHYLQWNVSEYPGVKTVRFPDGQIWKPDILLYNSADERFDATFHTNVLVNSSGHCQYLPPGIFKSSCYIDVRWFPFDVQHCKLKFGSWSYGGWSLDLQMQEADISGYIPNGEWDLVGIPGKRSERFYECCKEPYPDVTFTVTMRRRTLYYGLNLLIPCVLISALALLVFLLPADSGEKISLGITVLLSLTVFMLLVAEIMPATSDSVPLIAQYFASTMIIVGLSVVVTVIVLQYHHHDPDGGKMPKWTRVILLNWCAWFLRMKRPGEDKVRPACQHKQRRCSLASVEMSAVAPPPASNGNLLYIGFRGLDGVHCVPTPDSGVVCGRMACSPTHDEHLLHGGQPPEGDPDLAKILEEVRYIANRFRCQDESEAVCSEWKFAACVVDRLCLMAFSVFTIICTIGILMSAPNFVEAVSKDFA
Classification field: enter Satisfied for Emax values not below 500%, Not satisfied for values below it.

- molecule: "Cc1cc(-c2sc(N3C[C@@H](C)O[C@@H](C)C3)nc2CNC(=O)c2conc2C)cc(C)n1"
  classLabel: "Satisfied"
- molecule: "Cc1cc(-c2sc(N3C[C@@H](C)O[C@@H](C)C3)nc2CNC(=O)c2ccoc2)cc(C)n1"
  classLabel: "Satisfied"
- molecule: "CC(C)C(=O)NCc1nc(N2CCOCC2)sc1-c1ccncc1"
  classLabel: "Not satisfied"
- molecule: "Cc1cc(-c2sc(N3C[C@@H](C)O[C@@H](C)C3)nc2CNC(=O)c2cccc(F)c2)ccn1"
  classLabel: "Not satisfied"
- molecule: "Cc1cc(-c2sc(N3C[C@@H](C)O[C@@H](C)C3)nc2CNC(=O)c2cccc(F)c2)cc(C)n1"
  classLabel: "Satisfied"

Reference source for all entries: patent US8637510B2
